// recombinant UMI read abundance (log10) lookup, one value per entry
Test Description: recombinant UMI read abundance after kanamycin selection (control-corrected) (log10(CPM+1)); higher = more efficient recombination; extreme values may be limits of the assay; sequences stand for … in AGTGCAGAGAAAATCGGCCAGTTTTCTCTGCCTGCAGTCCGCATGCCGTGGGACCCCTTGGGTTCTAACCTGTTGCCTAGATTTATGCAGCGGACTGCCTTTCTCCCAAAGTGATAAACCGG…AGGTTGGTTTCACT; site = the 11-nt donor
Keep it simple and answer with nothing but the number.

>  <Entry Sequence>
ACCCCATCATGGACCGGTTTTCCCGGTAATCCGTATTTGAT (site ACCCCATCTAT)

>  <recombinant UMI read abundance (log10)>
1.23

$$$$
>  <Entry Sequence>
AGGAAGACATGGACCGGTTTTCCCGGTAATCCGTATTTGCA (site CAGAAGACTTG)

>  <recombinant UMI read abundance (log10)>
1.43

$$$$
>  <Entry Sequence>
CGAGGTGCATGGACCGGTTTTCCCGGTAATCCGTATTTGAT (site CTAGGTGCTAT)

>  <recombinant UMI read abundance (log10)>
1.6

$$$$
>  <Entry Sequence>
TGGTAGGCATGGACCGGTTTTCCCGGTAATCCGTATTTGGT (site TGCTAGGCTAC)

>  <recombinant UMI read abundance (log10)>
0.00286

$$$$

Q: Given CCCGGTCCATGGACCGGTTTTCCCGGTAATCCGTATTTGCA (site CCCGCTCCTTG) , respond with its recombinant UMI read abundance (log10).
Result: 0

Q: Given GTGGAGACATGGACCGGTTTTCCCGGTAATCCGTATTTGTG (site GTGGAGTCTCA) , respond with its recombinant UMI read abundance (log10).
Result: 1.99

###

Test Description: recombinant UMI read abundance after kanamycin selection (control-corrected) (log10(CPM+1)); higher = more efficient recombination; extreme values may be limits of the assay; sequences stand for … in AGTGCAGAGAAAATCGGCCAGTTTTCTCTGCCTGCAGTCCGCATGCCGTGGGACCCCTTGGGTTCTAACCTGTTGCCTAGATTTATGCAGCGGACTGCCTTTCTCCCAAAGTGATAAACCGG…AGGTTGGTTTCACT; site = the 11-nt donor
// recombinant UMI read abundance (log10) lookup, one value per entry
Keep it simple and answer with nothing but the number.

>  <Entry Sequence>
GCTTGCCCATGGACCGGTTTTCCCGGTAATCCGTATTTGAA (site GCTTGCCCTAT)

>  <recombinant UMI read abundance (log10)>
0

$$$$

Q: Given GGATAGACATGGACCGGTTTTCCCGGTAATCCGTATTTGCT (site GGATAGACTGG) , respond with its recombinant UMI read abundance (log10).
Result: 2.33

Q: Given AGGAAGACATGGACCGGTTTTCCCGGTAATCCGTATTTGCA (site AGGAAGTCTTG) , respond with its recombinant UMI read abundance (log10).
Result: 1.05

Q: Given CGGGGGTCATGGACCGGTTTTCCCGGTAATCCGTATTTGCC (site CGGGGGTCTGG) , respond with its recombinant UMI read abundance (log10).
Result: 1.86

###

// recombinant UMI read abundance (log10) lookup, one value per entry
Test Description: recombinant UMI read abundance after kanamycin selection (control-corrected) (log10(CPM+1)); higher = more efficient recombination; extreme values may be limits of the assay; sequences stand for … in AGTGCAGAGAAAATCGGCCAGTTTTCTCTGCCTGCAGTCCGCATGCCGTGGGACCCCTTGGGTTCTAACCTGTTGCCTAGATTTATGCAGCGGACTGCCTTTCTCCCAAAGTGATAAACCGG…AGGTTGGTTTCACT; site = the 11-nt donor
Keep it simple and answer with nothing but the number.

Some solved entries appear below for comparison.
>  <Entry Sequence>
CCCCACACATGGACCGGTTTTCCCGGTAATCCGTATTTGGA (site CCCCACACTTT)

>  <recombinant UMI read abundance (log10)>
0

$$$$
>  <Entry Sequence>
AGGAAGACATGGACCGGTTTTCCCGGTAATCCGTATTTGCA (site TGGGAGACTTG)

>  <recombinant UMI read abundance (log10)>
0

$$$$
>  <Entry Sequence>
GTTAGAACATGGACCGGTTTTCCCGGTAATCCGTATTTGCC (site GTTAGAACTGC)

>  <recombinant UMI read abundance (log10)>
0

$$$$

Q: Given CGAAAACCATGGACCGGTTTTCCCGGTAATCCGTATTTGTT (site CGGAATCCTAA) , respond with its recombinant UMI read abundance (log10).
Result: 0

Q: Given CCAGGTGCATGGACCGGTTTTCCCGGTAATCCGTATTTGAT (site CCAGGTGCTAC) , respond with its recombinant UMI read abundance (log10).
Result: 0.227

###

Test Description: recombinant UMI read abundance after kanamycin selection (control-corrected) (log10(CPM+1)); higher = more efficient recombination; extreme values may be limits of the assay; sequences stand for … in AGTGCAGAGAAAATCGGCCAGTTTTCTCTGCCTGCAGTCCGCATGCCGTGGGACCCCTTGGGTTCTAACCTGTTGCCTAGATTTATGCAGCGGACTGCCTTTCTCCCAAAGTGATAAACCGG…AGGTTGGTTTCACT; site = the 11-nt donor
Recorded Metric: recombinant UMI read abundance (log10)
Keep it simple and answer with nothing but the number.

Some solved entries appear below for comparison.
>  <Entry Sequence>
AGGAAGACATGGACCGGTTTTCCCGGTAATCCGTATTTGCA (site ATGAAGACTAG)

>  <Recorded Metric>
recombinant UMI read abundance (log10)

>  <Endpoint Value>
0

$$$$
>  <Entry Sequence>
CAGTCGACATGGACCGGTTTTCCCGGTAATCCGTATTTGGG (site GAGTCGACTCC)

>  <Recorded Metric>
recombinant UMI read abundance (log10)

>  <Endpoint Value>
0.0417

$$$$
>  <Entry Sequence>
TAACCTCCATGGACCGGTTTTCCCGGTAATCCGTATTTGAT (site TAACCTCCTAT)

>  <Recorded Metric>
recombinant UMI read abundance (log10)

>  <Endpoint Value>
0

$$$$
>  <Entry Sequence>
ACTAGTCCATGGACCGGTTTTCCCGGTAATCCGTATTTGGT (site ACTAGTGCTAC)

>  <Recorded Metric>
recombinant UMI read abundance (log10)

>  <Endpoint Value>
0.00689

$$$$

Now look at this entry.
Q: Given ACAGAATCATGGACCGGTTTTCCCGGTAATCCGTATTTGGA (site ACAGAATCTTC) , respond with its recombinant UMI read abundance (log10).
Result: 2.48

###

Test Description: recombinant barcode read abundance after kanamycin selection (control-corrected) (log10(CPM+1)); higher = more efficient recombination; sequences stand for … in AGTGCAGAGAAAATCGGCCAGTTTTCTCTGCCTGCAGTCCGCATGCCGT…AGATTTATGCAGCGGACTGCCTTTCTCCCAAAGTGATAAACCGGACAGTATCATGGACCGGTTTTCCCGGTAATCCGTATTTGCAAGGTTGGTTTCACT; site = the 11-nt target
Short version: recombinant barcode read abundance (log10) at least 0.4 is Criterion met, less is Criterion not met.

>  <Entry Sequence>
ACAAATCCTTGGGTTCTAACCTGTTGCCT (site ACAAAGCCTAG)

>  <Label>
Criterion not met

$$$$
>  <Entry Sequence>
ATGCAAGCTTGGGTTCTAACCTGTTGCCT (site ATGCAATCTAG)

>  <Label>
Criterion not met

$$$$
>  <Entry Sequence>
TGTCTACCTTGGGTTCTAACCTGTTGCCT (site TGTCTATCTAG)

>  <Label>
Criterion met

$$$$
>  <Entry Sequence>
CTTTGTACTTGGGTTCTAACCTGTTGCCT (site CTTTGTACTAG)

>  <Label>
Criterion met

$$$$
>  <Entry Sequence>
GGAATTCCTTGGGTTCTAACCTGTTGCCT (site GGAATACCTAG)

>  <Label>
Criterion not met

$$$$
>  <Entry Sequence>
GGACAATCTTGGGTTCTAACCTGTTGCCT (site GGACAATCTAG)

>  <Label>
Criterion met

$$$$
>  <Entry Sequence>
TCCAAGCCTTGGGTTCTAACCTGTTGCAG (site TCCAAGCCTCT)

>  <Label>
Criterion met

$$$$
>  <Entry Sequence>
CACGAGCCTTGGGTTCTAACCTGTTGCCT (site CACGAGACTAG)

>  <Label>
Criterion not met

$$$$

Q: Is it the case that ACAACGACTTGGGTTCTAACCTGTTGCCT (site ACAACCACTAG) has recombinant barcode read abundance (log10) reaching or exceeding 0.4?
Result: Criterion not met

Q: Is it the case that TTCTGAGCTTGGGTTCTAACCTGTTGCCT (site TTCTGGGCTAG) has recombinant barcode read abundance (log10) reaching or exceeding 0.4?
Result: Criterion not met

###

Test Description: recombinant barcode read abundance after kanamycin selection (control-corrected) (log10(CPM+1)); higher = more efficient recombination; sequences stand for … in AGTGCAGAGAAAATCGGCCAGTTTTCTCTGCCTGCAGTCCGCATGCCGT…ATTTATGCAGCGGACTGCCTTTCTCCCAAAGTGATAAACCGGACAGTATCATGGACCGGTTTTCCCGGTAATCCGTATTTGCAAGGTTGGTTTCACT; site = the 11-nt target
Recorded Metric: recombinant barcode read abundance (log10)

Some solved entries appear below for comparison.
>  <Entry Sequence>
TGTATTCATTGGGTTCTAACCTGTTGCCTAG [TGTATTCCTAG_LTGcore_AT_RTGcore_CT] (site TGTATTCCTAG) (LTG core: AT, RTG core: CT)

>  <Endpoint Value>
0.0853

$$$$
>  <Entry Sequence>
GAGTCCACGTGGGTTCTAACCTGTTGCGTCG [GAGTCCACTAC_LTGcore_CG_RTGcore_CG] (site GAGTCCACTAC) (LTG core: CG, RTG core: CG)

>  <Endpoint Value>
0.405

$$$$
>  <Entry Sequence>
GGACACCCTTGGGTTCTAACCTGTTGCCTCG [GGACACCCTAG_LTGcore_CT_RTGcore_CG] (site GGACACCCTAG) (LTG core: CT, RTG core: CG)

>  <Endpoint Value>
0.306

$$$$
>  <Entry Sequence>
AAACATGGCTGGGTTCTAACCTGTTGCCTAG [AAACATGCTAG_LTGcore_GC_RTGcore_CT] (site AAACATGCTAG) (LTG core: GC, RTG core: CT)

>  <Endpoint Value>
0.349

$$$$
>  <Entry Sequence>
GGGAGCCCTTGGGTTCTAACCTGTTGCTGGT [GGGAGCCCTCA_LTGcore_CT_RTGcore_AC] (site GGGAGCCCTCA) (LTG core: CT, RTG core: AC)

>  <Endpoint Value>
0.208

$$$$

Q: Given GCGCGACATTGGGTTCTAACCTGTTGCTTAT [GCGCGACCTAA_LTGcore_AT_RTGcore_AT] (site GCGCGACCTAA) (LTG core: AT, RTG core: AT) , respond with its recombinant barcode read abundance (log10).
Result: 0.493

Q: Given ACGGGACCATGGGTTCTAACCTGTTGCAGAG [ACGGGACCTCT_LTGcore_CA_RTGcore_CT] (site ACGGGACCTCT) (LTG core: CA, RTG core: CT) , respond with its recombinant barcode read abundance (log10).
Result: 2.09

Q: Given TGATACCAATGGGTTCTAACCTGTTGCGTTT [TGATACCCTAC_LTGcore_AA_RTGcore_AA] (site TGATACCCTAC) (LTG core: AA, RTG core: AA) , respond with its recombinant barcode read abundance (log10).
Result: 0.0446

Q: Given AAACATGCATGGGTTCTAACCTGTTGCCTAG [AAACATGCTAG_LTGcore_CA_RTGcore_CT] (site AAACATGCTAG) (LTG core: CA, RTG core: CT) , respond with its recombinant barcode read abundance (log10).
Result: 0.141

Q: Given GTCGCCCCTTGGGTTCTAACCTGTTGCTAAT [GTCGCCCCTTA_LTGcore_CT_RTGcore_AT] (site GTCGCCCCTTA) (LTG core: CT, RTG core: AT) , respond with its recombinant barcode read abundance (log10).
Result: 0.474

Q: Given GAGGCCTTTTGGGTTCTAACCTGTTGCCAAG [GAGGCCTCTTG_LTGcore_TT_RTGcore_CT] (site GAGGCCTCTTG) (LTG core: TT, RTG core: CT) , respond with its recombinant barcode read abundance (log10).
Result: 0.0682

Q: Given AAACACAAGTGGGTTCTAACCTGTTGCCTAG [AAACACACTAG_LTGcore_AG_RTGcore_CT] (site AAACACACTAG) (LTG core: AG, RTG core: CT) , respond with its recombinant barcode read abundance (log10).
Result: 0.0385

Q: Given ATGTCCCTGTGGGTTCTAACCTGTTGCTCAG [ATGTCCCCTGA_LTGcore_TG_RTGcore_CT] (site ATGTCCCCTGA) (LTG core: TG, RTG core: CT) , respond with its recombinant barcode read abundance (log10).
Result: 0.0616

Q: Given GCGCGACATTGGGTTCTAACCTGTTGCTTAG [GCGCGACCTAA_LTGcore_AT_RTGcore_CT] (site GCGCGACCTAA) (LTG core: AT, RTG core: CT) , respond with its recombinant barcode read abundance (log10).
Result: 0.0488

Q: Given GAGGCCTCTTGGGTTCTAACCTGTTGCCAAT [GAGGCCTCTTG_LTGcore_CT_RTGcore_AT] (site GAGGCCTCTTG) (LTG core: CT, RTG core: AT) , respond with its recombinant barcode read abundance (log10).
Result: 0

Q: Given GAGTCCAAGTGGGTTCTAACCTGTTGCGTCT [GAGTCCACTAC_LTGcore_AG_RTGcore_AG] (site GAGTCCACTAC) (LTG core: AG, RTG core: AG) , respond with its recombinant barcode read abundance (log10).
Result: 0.0337

Q: Given GAGCCCACTTGGGTTCTAACCTGTTGCCTAT [GAGCCCACTAG_LTGcore_CT_RTGcore_AT] (site GAGCCCACTAG) (LTG core: CT, RTG core: AT) , respond with its recombinant barcode read abundance (log10).
Result: 0.41

Q: Given TTATAAAGCTGGGTTCTAACCTGTTGCCTGC [TTATAAACTAG_LTGcore_GC_RTGcore_GC] (site TTATAAACTAG) (LTG core: GC, RTG core: GC) , respond with its recombinant barcode read abundance (log10).
Result: 0
